Test system: MCF7 complex spheroid growth, % test/control
Assay: Anticancer human tumor MCF7 cell line growth inhibition [Asc]; active = viability on the fitted dose curve at most 10% of control; inactive = the rest;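 note: spheroids exposed to compounds for 7 days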
Conditions: second compound 3 µM; first compound 0.00316 µM
Outcomes: active, inactive

1) NC1CCC(NC2CC2c2ccccc2)CC1 (stereo unspecified) + CCN1C(C(=O)NC23CCC(C(=O)O)(CC2)CC3)C(c2cccc(Cl)c2F)C2(C(=O)Nc3cc(Cl)ccc32)C12CCCCC2; inactive
2) CNC(C)C(=O)NC1CN(S(=O)(=O)c2cccc(S(=O)(=O)N3CCC4CCC(C(=O)NC(c5ccccc5)c5ccccc5)N4C(=O)C(NC(=O)C(C)NC)C3)c2)CCC2CCC(C(=O)NC(c3ccccc3)c3ccccc3)N2C1=O (stereo unspecified) + CCN1C(C(=O)NC23CCC(C(=O)O)(CC2)CC3)C(c2cccc(Cl)c2F)C2(C(=O)Nc3cc(Cl)ccc32)C12CCCCC2; inactive
3) O=C(c1ccc(F)c(F)c1Nc1ccc(I)cc1F)N1CC(O)([C@@H]2CCCCN2)C1 + CCN1C(C(=O)NC23CCC(C(=O)O)(CC2)CC3)C(c2cccc(Cl)c2F)C2(C(=O)Nc3cc(Cl)ccc32)C12CCCCC2; inactive
4) Cn1ncnc1[C@H]1c2n[nH]c(=O)c3cc(F)cc(c23)N[C@@H]1c1ccc(F)cc1 + CCN1C(C(=O)NC23CCC(C(=O)O)(CC2)CC3)C(c2cccc(Cl)c2F)C2(C(=O)Nc3cc(Cl)ccc32)C12CCCCC2; inactive
5) COc1c(OCCCN2CCOCC2)ccc2c3n(c(=NC(=O)c4cnc(N)nc4)nc12)CCN3 + CCN1C(C(=O)NC23CCC(C(=O)O)(CC2)CC3)C(c2cccc(Cl)c2F)C2(C(=O)Nc3cc(Cl)ccc32)C12CCCCC2; active
6) CCN1CCN(Cc2ccc(Nc3ncc(F)c(-c4cc(F)c5nc(C)n(C(C)C)c5c4)n3)nc2)CC1 + CCN1C(C(=O)NC23CCC(C(=O)O)(CC2)CC3)C(c2cccc(Cl)c2F)C2(C(=O)Nc3cc(Cl)ccc32)C12CCCCC2; inactive
